Biological target: K-Ras G13C (Homo sapiens (Human), UniProt P01116+P62937, G13C)
Sequence (P01116-2 other isoform, or with tags, fused parts or gaps G13C): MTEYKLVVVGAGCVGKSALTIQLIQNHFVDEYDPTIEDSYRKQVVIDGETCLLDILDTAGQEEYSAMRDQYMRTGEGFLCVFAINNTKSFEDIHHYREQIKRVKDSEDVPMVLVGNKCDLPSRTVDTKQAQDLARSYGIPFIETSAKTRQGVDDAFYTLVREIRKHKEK
Sequence (P62937 whole entry): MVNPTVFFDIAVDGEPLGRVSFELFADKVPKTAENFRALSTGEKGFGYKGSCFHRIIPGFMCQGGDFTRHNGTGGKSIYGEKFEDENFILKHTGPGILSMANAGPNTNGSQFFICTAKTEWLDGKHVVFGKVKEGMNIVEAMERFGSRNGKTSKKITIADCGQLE
Test: Ras-Raf (BRAF RBD) disruption / FRET / MOA assay, KRAS G13C
Format: biochemical
Conditions: KRAS G13C; Ras-Raf disruption/FRET/MOA assay; read-out: IC50* KRAS G13C FRET data
pIC50: −log10 of the molar value.

- Molecule: "C/C=C(\\C)S(=O)(=O)N1CC[C@H](C(=O)N(C)[C@H](C(=O)N[C@H]2Cc3cc(O)cc(c3)-c3ccc4c(c3)c(c(-c3cccnc3[C@H](C)OC)n4CC)CC(C)(C)COC(=O)[C@@H]3CCCN(N3)C2=O)C(C)C)C1 (atropisomer, axis not shown)"
  Measured target: "K-Ras G13C (Homo sapiens (Human), UniProt P01116+P62937, G13C)"
  pIC50: "7.00 to 8.00"
- Molecule: "CCn1c(-c2cccnc2[C@H](C)OC)c2c3cc(ccc31)-c1cc(O)cc(c1)C[C@H](NC(=O)[C@H](C(C)C)N(C)C(=O)[C@H]1CCN(C(=O)C#CC3(N(C)C)COC3)C1)C(=O)N1CCC[C@H](N1)C(=O)OCC(C)(C)C2"
  Measured target: "K-Ras G13C (Homo sapiens (Human), UniProt P01116+P62937, G13C)"
  pIC50: "7.00 to 8.00"
- Molecule: "C=CC(=O)N1CC[C@H](C(=O)N(C)[C@H](C(=O)N[C@H]2Cc3cc(O)cc(c3)-c3ccc4c(c3)c(c(-c3cncc5c3[C@@H](OC)CC5)n4CC)CC(C)(C)COC(=O)[C@@H]3CCCN(N3)C2=O)C(C)C)C1"
  Measured target: "K-Ras G13C (Homo sapiens (Human), UniProt P01116+P62937, G13C)"
  pIC50: "7.00 to 8.00"
- Molecule: "C=CC(=O)N(C)[C@H]1C[C@H](N(C)C(=O)N(C)[C@H](C(=O)N[C@H]2Cc3nc(cs3)-c3ccc4c(c3)c(c(-c3cccnc3[C@H](C)OC)n4CC)CC(C)(C)COC(=O)[C@@H]3CCCN(N3)C2=O)C(C)C)C1 (atropisomer, axis not shown)"
  Measured target: "K-Ras G13C (Homo sapiens (Human), UniProt P01116+P62937, G13C)"
  pIC50: "6.00 to 7.00"
- Molecule: "C=CC(=O)N1CC[C@H](C(=O)N(C)[C@@H](CC(F)(F)F)C(=O)N[C@H]2Cc3cccc(c3)-c3ccc4c(c3)c(c(-c3cccnc3[C@H](C)OC)n4CC)CC(C)(C)COC(=O)[C@@H]3CCCN(N3)C2=O)C1 (atropisomer, axis not shown)"
  Measured target: "K-Ras G13C (Homo sapiens (Human), UniProt P01116+P62937, G13C)"
  pIC50: "5.00 to 6.00"
- Molecule: "C=CC(=O)C1CC[C@H](C(=O)N(C)[C@H](C(=O)N[C@H]2Cc3nsc(n3)-c3ccc4c(c3)c(c(-c3cccnc3[C@H](C)OC)n4CC)CC(C)(C)COC(=O)[C@@H]3CCCN(N3)C2=O)C(C)C)C1 (some centres unmarked)"
  Measured target: "K-Ras G13C (Homo sapiens (Human), UniProt P01116+P62937, G13C)"
  pIC50: "6.00 to 7.00"
- Molecule: "C=CC(=O)N1CC[C@H](C(=O)N(C)[C@H](C(=O)N[C@H]2Cc3cccc(c3)-c3ccc4c(c3)c(c(-c3cccnc3[C@H](C)OC)n4CC3COC3)CC(C)(C)COC(=O)[C@@H]3CCCN(N3)C2=O)C(C)C)C1 (atropisomer, axis not shown)"
  Measured target: "K-Ras G13C (Homo sapiens (Human), UniProt P01116+P62937, G13C)"
  pIC50: "5.00 to 6.00"
- Molecule: "CC#CC(=O)N1CC[C@@H](C(=O)N(C)[C@H](C(=O)N[C@H]2Cc3cccc(c3)-c3ccc4c(c3)c(c(-c3cccnc3[C@H](C)OC)n4CC)CC(C)(C)COC(=O)[C@@H]3CCCN(N3)C2=O)C(C)C)C1 (atropisomer, axis not shown)"
  Measured target: "K-Ras G13C (Homo sapiens (Human), UniProt P01116+P62937, G13C)"
  pIC50: "6.00 to 7.00"

---

Target: KRAS G12V (Homo sapiens (Human), UniProt P01116+P62937, G12V)
Sequence (P01116-2 other isoform, or with tags, fused parts or gaps G12V, one chain of several): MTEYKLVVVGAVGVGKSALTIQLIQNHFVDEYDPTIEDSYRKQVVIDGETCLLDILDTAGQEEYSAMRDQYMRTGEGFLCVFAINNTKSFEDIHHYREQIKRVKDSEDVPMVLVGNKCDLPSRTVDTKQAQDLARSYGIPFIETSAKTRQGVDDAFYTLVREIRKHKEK
Assay: Ras-Raf (BRAF RBD) disruption / FRET / MOA assay, KRAS G12V
Format: biochemical
Conditions: read-out: IC50* KRAS G12V FRET data
# maps each entry to its IC50
Measured endpoint: IC50

- Compound: "CCn1c(-c2cccnc2[C@H](C)OC)c2c3cc(ccc31)-c1cccc(c1)C[C@H](NC(=O)[C@@H](COC1CN(C(=O)C#CC(C)(C)O)C1)C(C)C)C(=O)N1CCC[C@H](N1)C(=O)OCC(C)(C)C2 (atropisomer, axis not shown) [Example A708]"
  Assay value: "1 to 10 µM"
- Compound: "C=CC(=O)N1C[C@@H](C)[C@H](C(=O)N(C)[C@H](C(=O)N[C@H]2Cc3cccc(c3)-c3ccc4c(c3)c(c(-c3cccnc3[C@H](C)OC)n4CC)CC(C)(C)COC(=O)[C@@H]3CCCN(N3)C2=O)C(C)C)C1 (atropisomer, axis not shown) [Example A497]"
  Assay value: "> 10 µM"
- Compound: "C=CC(=O)N1CC[C@H](C(=O)N(C)[C@H](C(=O)N[C@H]2Cc3cccc(c3F)-c3ccc4c(c3)c(c(-c3cccnc3[C@H](C)OC)n4CC)CC(C)(C)COC(=O)[C@@H]3CCCN(N3)C2=O)C(C)C)C1 (atropisomer, axis not shown) [Example A327]"
  Assay value: "> 10 µM"
- Compound: "C=CC(=O)N1CC[C@H](C(=O)N(C)[C@H](C(=O)N[C@H]2CC3=CCCN(C3)c3ccc4c(c3)c(c(-c3cccnc3[C@H](C)OC)n4CC)CC(C)(C)COC(=O)[C@@H]3CCCN(N3)C2=O)C(C)C)C1 (atropisomer, axis not shown) [Example A486]"
  Assay value: "> 10 µM"
- Compound: "C=CC(=O)N1CCN(C(=O)N(C)[C@H](C(=O)N[C@H]2Cc3cc(O)cc(c3)-c3ccc4c(c3)c(c(-c3cccnc3[C@H](C)OC)n4CC)CC(C)(C)COC(=O)[C@@H]3CCCN(N3)C2=O)C(C)C)CC1 (atropisomer, axis not shown) [Example A262]"
  Assay value: "0.01 to 0.1 µM"
- Compound: "CC#CC(=O)N1CC[C@@]2(CCN([C@H](C(=O)N[C@H]3Cc4nc(cs4)-c4ccc5c(c4)c(c(-c4cccnc4[C@H](C)OC)n5CC)CC(C)(C)COC(=O)[C@@H]4CCCN(N4)C3=O)C(C)C)C2=O)C1 (atropisomer, axis not shown) [Example A535]"
  Assay value: "> 10 µM"
- Compound: "CCn1c(-c2cccnc2[C@H](C)OC)c2c3cc(ccc31)-c1csc(n1)C[C@H](NC(=O)CCOC1CN(C(=O)C#CC(C)(C)N3CCC3)C1)C(=O)N1CCC[C@H](N1)C(=O)OCC(C)(C)C2 (atropisomer, axis not shown) [Example A477]"
  Assay value: "1 to 10 µM"
- Compound: "CCn1c(-c2cccnc2[C@H](C)OC)c2c3cc(ccc31)-c1cccc(c1)C[C@H](NC(=O)[C@H](C(C)C)N1CO[C@@]3(CCN(C(=O)C#CC(C)(C)N4CCC4)C3)C1=O)C(=O)N1CCC[C@H](N1)C(=O)OCC(C)(C)C2 (atropisomer, axis not shown) [Example A733]"
  Assay value: "1 to 10 µM"

---

Molecular target: KRAS G12V (Homo sapiens (Human), UniProt P01116+P62937, G12V)
Assay: Ras-Raf (BRAF RBD) disruption / FRET / MOA assay, KRAS G12V
Assay type: biochemical
Settings: read-out: IC50* KRAS G12V FRET data
pIC50: −log10 of the molar value.
Measured endpoint: pIC50

- Compound: "CCn1c(-c2cccnc2[C@H](C)OC)c2c3cc(ccc31)-c1cccc(c1)C[C@H](NC(=O)[C@@H](COC1CN(C(=O)C#C[C@H]3COCCN3C)C1)C(C)C)C(=O)N1CCC[C@H](N1)C(=O)OCC(C)(C)C2 (atropisomer, axis not shown) [Example A644]"
  Measured endpoint: "pIC50"
  Assay value: "< 5.00"
- Compound: "CCn1c(-c2cncnc2)c2c3cc(ccc31)-c1csc(n1)C[C@H](NC(=O)[C@H](C(C)C)N(C)C(=O)[C@H]1CCN(C(=O)C#CCN3CCOCC3)C1)C(=O)N1CCC[C@H](N1)C(=O)OCC(C)(C)C2 [Example A177]"
  Measured endpoint: "pIC50"
  Assay value: "< 5.00"
- Compound: "CCn1c(-c2cccnc2[C@H](C)OC)c2c3cc(ccc31)-c1cccc(c1)CC(NC(=O)[C@H](C(C)C)N1CC[C@]3(CCN(C(=O)C#C[C@@H]4COCCN4C4COC4)C3)C1=O)C(=O)N1CCC[C@H](N1)C(=O)OCC(C)(C)C2 (stereo partly drawn) [Example A565]"
  Measured endpoint: "pIC50"
  Assay value: "5.00 to 6.00"
- Compound: "C=CC(=O)N(C)C[C@H]1CCN(C(=O)N(C)[C@H](C(=O)N[C@H]2Cc3nc(cs3)-c3ccc4c(c3)c(c(-c3cccnc3[C@H](C)OC)n4CC)CC(C)(C)COC(=O)[C@@H]3CCCN(N3)C2=O)C(C)C)C1 (atropisomer, axis not shown) [Example A653]"
  Measured endpoint: "pIC50"
  Assay value: "6.00 to 7.00"
- Compound: "CCn1c(-c2cccnc2[C@H](C)OC)c2c3cc(ccc31)-c1cccc(c1)C[C@H](NC(=O)[C@@H](COC1CN(C(=O)C#C[C@@H]3OCCCN3C)C1)C(C)C)C(=O)N1CCC[C@H](N1)C(=O)OCC(C)(C)C2 (atropisomer, axis not shown) [Example A648]"
  Measured endpoint: "pIC50"
  Assay value: "< 5.00"
- Compound: "C=CC(=O)N1C[C@@H](F)[C@](F)(C(=O)N(C)[C@H](C(=O)N[C@H]2Cc3cccc(c3)-c3ccc4c(c3)c(c(-c3cccnc3[C@H](C)OC)n4CC)CC(C)(C)COC(=O)[C@@H]3CCCN(N3)C2=O)C(C)C)C1 (atropisomer, axis not shown) [Example A396]"
  Measured endpoint: "pIC50"
  Assay value: "5.00 to 6.00"
- Compound: "C=CC(=O)N1C[C@@H](C)[C@H](N(C)C(=O)N(C)[C@H](C(=O)N[C@H]2Cc3nc(cs3)-c3ccc4c(c3)c(c(-c3cccnc3[C@H](C)OC)n4CC)CC(C)(C)COC(=O)[C@@H]3CCCN(N3)C2=O)C(C)C)C1 (atropisomer, axis not shown) [Example A588]"
  Measured endpoint: "pIC50"
  Assay value: "5.00 to 6.00"
- Compound: "C=CC(=O)N(C)CCC(=O)N(C)[C@H](C(=O)N[C@H]1Cc2cc(O)cc(c2)-c2ccc3c(c2)c(c(-c2cccnc2COC)n3CC)CC(C)(C)COC(=O)[C@@H]2CCCN(N2)C1=O)C(C)C [Example A117]"
  Measured endpoint: "pIC50"
  Assay value: "5.00 to 6.00"
- Compound: "C=CC(=O)N(C)C(=O)N(C)[C@H](C(=O)N[C@H]1Cc2nc(cs2)-c2ccc3c(c2)c(c(-c2cccnc2[C@H](C)OC)n3CC)CC(C)(C)COC(=O)[C@@H]2CCCN(N2)C1=O)C(C)C (atropisomer, axis not shown) [Example A355]"
  Measured endpoint: "pIC50"
  Assay value: "< 5.00"
- Compound: "C=CC(=O)N1CC[C@H](C(=O)N(C)[C@H](C(=O)N[C@@H]2C(=O)N3CCC[C@H](N3)C(=O)OCC(C)(C)Cc3c(-c4cncnc4)n(CC)c4ccc(cc34)-c3cccc(c3)[C@H]2O)C(C)C)C1 [Example A272]"
  Measured endpoint: "pIC50"
  Assay value: "< 5.00"
- Compound: "CO[C@@H](C)c1ncccc1-c1c2c3cc(ccc3n1CC(F)(F)F)-c1cc(CF)cc(c1)C[C@H](NC(=O)[C@@H](COC1CN(C(=O)C#CC(C)(C)N(C)C)C1)C(C)C)C(=O)N1CCC[C@H](N1)C(=O)OCC(C)(C)C2 (atropisomer, axis not shown) [Example A589]"
  Measured endpoint: "pIC50"
  Assay value: "< 5.00"
- Compound: "CCn1c(-c2cccnc2[C@H](C)OC)c2c3cc(ccc31)N1CCO[C@@H](C[C@H](NC(=O)[C@H](C(C)C)N(C)C(=O)C3(F)CCN(C(=O)/C=C/CN(C)C)CC3)C(=O)N3CCC[C@H](N3)C(=O)OCC(C)(C)C2)C1 (atropisomer, axis not shown) [Example A645]"
  Measured endpoint: "pIC50"
  Assay value: "5.00 to 6.00"
- Compound: "CCn1c(-c2cccnc2[C@H](C)OC)c2c3cc(ccc31)-c1cccc(c1)C[C@H](NC(=O)[C@H](C(C)C)N(C)C(=O)[C@H]1CCN(S(=O)(=O)C=C(C)C)C1)C(=O)N1CCC[C@H](N1)C(=O)OCC(C)(C)C2 (atropisomer, axis not shown) [Example A307]"
  Measured endpoint: "pIC50"
  Assay value: "5.00 to 6.00"
- Compound: "C=CC(=O)N1CCC[C@H]2CN(C(=O)N(C)[C@H](C(=O)N[C@H]3Cc4nc(cs4)-c4ccc5c(c4)c(c(-c4cccnc4[C@H](C)OC)n5CC)CC(C)(C)COC(=O)[C@@H]4CCCN(N4)C3=O)C(C)C)C[C@H]21 (atropisomer, axis not shown) [Example A618]"
  Measured endpoint: "pIC50"
  Assay value: "6.00 to 7.00"
- Compound: "C=CC(=O)N1CCN(C(=O)N(C)[C@H](C(=O)N[C@H]2Cc3nc(cs3)-c3ccc4c(c3)c(c(-c3cccnc3[C@H](C)OC)n4CC)CC(C)(C)COC(=O)[C@@H]3CCCN(N3)C2=O)C(C)C)[C@@H](C)C1 (atropisomer, axis not shown) [Example A421]"
  Measured endpoint: "pIC50"
  Assay value: "6.00 to 7.00"
